Reference for the values: paper PMC9482650

target: ARHGEF12, Q9NZN5-2; assay: holdup assay; parameters: key: below the threshold = too weak to quantify, mostly under pKd 3.1 to 4; conditions: plain residues with an end cap or a label only (N-terminal biotin on a linker: ado-ado)
Sequence (Q9NZN5 other isoform, or with tags, fused parts or gaps): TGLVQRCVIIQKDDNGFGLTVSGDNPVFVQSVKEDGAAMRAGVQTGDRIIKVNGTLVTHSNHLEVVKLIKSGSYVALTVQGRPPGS
READOUT_TYPE: pKd
Give a plain numeric answer without units written out.

Some binders with known pKd results, for comparison:
BINDER: RRRESYSTTV [EVI5, O60447]
pKd: 4.74
--
BINDER: QPCFNKLFPL [LPXN, O60711]
pKd: 3.56
--
BINDER: LPAHHNATRL [SLC34A1, Q06495;Q06495-1]
pKd: 4.44

Proceed to the following item.
The binder listed as PPYRHRNTVV [ERBB4, Q15303] shows pKd equal to 4.12
